Provide the recorded protein stability index for the entries that follow.
B1: CHMP4C (parent)
chain: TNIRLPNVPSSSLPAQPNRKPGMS

variants of: B1; experiment: protein stability index of a GFP-peptide fusion (GPS, HEK-293T) (PSI 1-6); higher = more stable; settings: c terminus: a fixed tail appended;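 note: lentivirally expressed fusions sorted by FACS into six bins by GFP to DsRed ratio, PSI derived from sequencing read proportions per bin multiplied by bin number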
The answer should be written as a number, with no unit following it.

Reported protein stability index for `P9R` : what is it? 4.45

Reported protein stability index for `L13N` : what is it? 4.52

Reported protein stability index for `S24V` : what is it? 4.86

Reported protein stability index for `S11Y` : what is it? 4.28

Reported protein stability index for `P14Q` : what is it? 4.98

Reported protein stability index for `Q16G` : what is it? 4.51

Reported protein stability index for `V8R` : what is it? 4.42

Reported protein stability index for `P17G` : what is it? 4.71

Reported protein stability index for `A15D` : what is it? 4.75

Reported protein stability index for `M23P` : what is it? 4.28

Reported protein stability index for `G22A` : what is it? 4.48

Reported protein stability index for `L13R` : what is it? 4.82

Reported protein stability index for `V8A` : what is it? 4.51

Reported protein stability index for `N2S` : what is it? 4.7

Reported protein stability index for `P17D` : what is it? 4.35

Reported protein stability index for `S12Q` : what is it? 4.66

Reported protein stability index for `P9V` : what is it? 4.71

Reported protein stability index for `M23G` : what is it? 5.2

Reported protein stability index for `P9I` : what is it? 4.3

Reported protein stability index for `S10Q` : what is it? 4.73

Reported protein stability index for `I3S` : what is it? 4.71

Reported protein stability index for `Q16D` : what is it? 4.24
